- assay.target: UniProt:P42866
- Sequence (P42866 whole entry): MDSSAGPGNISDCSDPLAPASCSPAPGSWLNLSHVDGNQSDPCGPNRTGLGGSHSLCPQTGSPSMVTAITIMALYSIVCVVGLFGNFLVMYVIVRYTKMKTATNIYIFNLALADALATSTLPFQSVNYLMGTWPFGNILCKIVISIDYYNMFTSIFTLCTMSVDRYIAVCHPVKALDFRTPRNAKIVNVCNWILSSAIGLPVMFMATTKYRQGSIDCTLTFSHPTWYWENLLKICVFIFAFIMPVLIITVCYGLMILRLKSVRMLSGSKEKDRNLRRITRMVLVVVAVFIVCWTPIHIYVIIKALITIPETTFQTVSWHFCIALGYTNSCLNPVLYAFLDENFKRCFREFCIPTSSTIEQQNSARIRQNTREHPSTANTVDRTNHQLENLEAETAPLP
pKi: −log10 of the molar value.
Recorded measurements of pKi, one per entry
quantity: pKi

{"columns": ["molecule", "measured.number"],
 "data": [
  ["CC[C@@H]1CN2CC[C@@]3(O)C(=Nc4cccc(OC)c43)[C@@H]2C[C@@H]1/C(=C\\OC)C(=O)OC [Compound 23, 7-hydroxymitragynine, reference compound]", 7.67],
  ["CC[C@@H]1CN2CC[C@@]3(O)C(=Nc4cc(Cl)cc(OC)c43)[C@@H]2C[C@@H]1/C(=C\\OC)C(=O)OC", 7.57],
  ["CC[C@@H]1CN2CC[C@@]3(O)C(=Nc4cc(Br)cc(OC)c43)[C@@H]2C[C@@H]1/C(=C\\OC)C(=O)OC", 7.49],
  ["CC[C@@H]1CN2CC[C@@]3(O)C(=Nc4cc(F)cc(OC)c43)[C@@H]2C[C@@H]1/C(=C\\OC)C(=O)OC [Compound 24, 11-Fluoro-7-hydroxymitragynine]", 7.86]
]}
